Hi there, I'd appreciate the recorded peptide exchange yield for every entry that follows.
- STUDY_SYSTEM: T1, HLA-A*02:01 (human)
- T1 construct: the tested peptide takes its place; also called peptide-receptive MHC molecules; MHC class I
- EXPERIMENTAL_DETAILS: UV-ligand exchange, anti-β2m ELISA; grade of peptide exchange yield
- Source text: Candidate peptides for T cell based therapies according to the present invention were further tested for their MHC binding capacity (affinity). The individual peptide-MHC complexes were produced by UV-ligand exchange, where a UV-sensitive peptide is cleaved upon UV-irradiation, and exchanged with the peptide of interest as analyzed. Only peptide candidates that can effectively bind and stabilize the peptide-receptive MHC molecules prevent dissociation of the MHC complexes. […]

Query: So what's the measured peptide exchange yield for this one? ALLDIIRSL [ALLDIIRSL (SEQ ID NO: 151)]
Response: ≥ 75%

Query: So what's the measured peptide exchange yield for this one? LLDENGVLKL [LLDENGVLKL (SEQ ID NO: 48)]
Response: 50 to 75%

Query: So what's the measured peptide exchange yield for this one? FLNPDEVHAI [FLNPDEVHAI (SEQ ID NO: 37)]
Response: 20 to 50%

Query: So what's the measured peptide exchange yield for this one? ALFGAGPASI [ALFGAGPASI (SEQ ID NO: 100)]
Response: 50 to 75%

Query: So what's the measured peptide exchange yield for this one? TLWYRPPEL [TLWYRPPEL (SEQ ID NO: 118)]
Response: 50 to 75%

Query: So what's the measured peptide exchange yield for this one? ILLTGTPAL [ILLTGTPAL (SEQ ID NO: 110)]
Response: 50 to 75%

Query: So what's the measured peptide exchange yield for this one? FGYDGDFYRA [FGYDGDFYRA (SEQ ID NO: 2)]
Response: 50 to 75%

Query: So what's the measured peptide exchange yield for this one? ALSDLALHFL [ALSDLALHFL (SEQ ID NO: 127)]
Response: ≥ 75%

Recorded values, source patent US20160368965A1.
